Can you tell me IC50 for the items I'm about to list?

Reading of IC50 for CCCCCCCCCCCCCc1cccc(O)c1C(=O)O [GA, Ginkgolic acid (C13:0), reference compound] with PTPN9 (Homo sapiens, UniProt P43378): 21.8 µM

Reading of IC50 for `CCCCCCCCCCCCCOc1ccc(O)c(C(=O)O)c1` with PTPN9 (Homo sapiens, UniProt P43378): 36.5 µM

Reading of IC50 for `CCCCCCCCCCCCCOc1ccc(C(=O)O)c(O)c1` with PTPN9 (Homo sapiens, UniProt P43378): 69.3 µM

Reading of IC50 for `CCCCCCCCCCCCCCCOc1cccc(O)c1C(=O)O` with PTPN9 (Homo sapiens, UniProt P43378): 10.2 µM

Reading of IC50 for `CCCCCCCCCCCOc1cccc(O)c1C(=O)O` with PTPN9 (Homo sapiens, UniProt P43378): 77.1 µM

====

quantity_kind: IC50 (µM)
Answer in µM, number only, no unit symbol.

Reading of IC50 for `CCCCCCCCCCCCCOc1cccc(O)c1C(=O)O` with DUSP9 (Homo sapiens, UniProt Q99956): 6.4

Reading of IC50 for `CCCCCCCCCCCCOc1cccc(O)c1C(=O)O` with DUSP9 (Homo sapiens, UniProt Q99956): 8.61

Reading of IC50 for CCCCCCCCCCCCCc1cccc(O)c1C(=O)O [GA, Ginkgolic acid (C13:0), reference compound] with DUSP9 (Homo sapiens, UniProt Q99956): 3.64
